- target_or_test_system: Aldo-keto reductase family 1 member B1 (Homo sapiens, UniProt P15121)
- protocol_description: Inhibition of recombinant human ALR2 using D,L-glyceraldehyde and NADPH as substrate preincubated for 3 mins followed by substrate addition and measured for 3 mins by spectrophotometric analysis
- run_conditions: read-out: IC50
assay_metric: pIC50
As a rule, pIC50 stands for the negative log10 of the concentration, concentration in M.

// worked examples, pIC50 included
structure_as_smiles | value_reported
CC(C)C[C@@H](NC(=O)c1cnc2c(=O)[nH]c(N)nc2n1)C(=O)O | 4.01
Nc1nc2nc(C(=O)O)cnc2c(=O)[nH]1 | 4.58
Nc1nc2ncc(CNc3ccc(C(=O)N[C@@H](CCC(=O)O)C(=O)O)cc3)nc2c(=O)[nH]1 | 4.28

Specify reported pIC50 for the molecule shown: Nc1nc2nc(C(=O)N[C@H](CO)C(=O)O)cnc2c(=O)[nH]1
3.89

Specify reported pIC50 for the molecule shown: Nc1nc2nc(C(=O)NCC(=O)O)cnc2c(=O)[nH]1
5.71
